Conditions: in 2-ethoxyethanol, 298.15 K
measured.parameter: solubility (mole fraction)
// keep it numeric: no unit symbol after the value

## Input Field request: solubility (mole fraction) | item: O=P1(c2cc(O)ccc2O)Oc2ccccc2-c2ccccc21 (stereo unspecified)
## Output 0.0012

* * *

Conditions: in acetone, 292.15 K
measured.parameter: solubility (mole fraction)
// keep it numeric: no unit symbol after the value

## Input Field request: solubility (mole fraction) | item: O=P1(c2cc(O)ccc2O)Oc2ccccc2-c2ccccc21 (stereo unspecified)
## Output 0.00153

* * *

Settings: in water, 342.35 K
measured.parameter: solubility (mole fraction)
// keep it numeric: no unit symbol after the value

## Input Field request: solubility (mole fraction) | item: O=P1(c2cc(O)ccc2O)Oc2ccccc2-c2ccccc21 (stereo unspecified)
## Output 0.000189

* * *

Details: in acetone, 302.15 K
measured.parameter: solubility (mole fraction)
// keep it numeric: no unit symbol after the value

## Input Field request: solubility (mole fraction) | item: O=P1(c2cc(O)ccc2O)Oc2ccccc2-c2ccccc21 (stereo unspecified)
## Output 0.00226

* * *

Details: in acetone, 297.15 K
measured.parameter: solubility (mole fraction)
// keep it numeric: no unit symbol after the value

## Input Field request: solubility (mole fraction) | item: O=P1(c2cc(O)ccc2O)Oc2ccccc2-c2ccccc21 (stereo unspecified)
## Output 0.00182

* * *

Settings: in ethanol, 327.85 K
measured.parameter: solubility (mole fraction)
// keep it numeric: no unit symbol after the value

## Input Field request: solubility (mole fraction) | item: O=P1(c2cc(O)ccc2O)Oc2ccccc2-c2ccccc21 (stereo unspecified)
## Output 0.00352

* * *

Details: in methanol, 293.15 K
measured.parameter: solubility (mole fraction)
// keep it numeric: no unit symbol after the value

## Input Field request: solubility (mole fraction) | item: O=P1(c2cc(O)ccc2O)Oc2ccccc2-c2ccccc21 (stereo unspecified)
## Output 0.00107

* * *

Settings: in methanol, 298 K
measured.parameter: solubility (mole fraction)
// keep it numeric: no unit symbol after the value

## Input Field request: solubility (mole fraction) | item: O=P1(c2cc(O)ccc2O)Oc2ccccc2-c2ccccc21 (stereo unspecified)
## Output 0.00128

* * *

Conditions: in 2-ethoxyethanol, 352.83 K
measured.parameter: solubility (mole fraction)

## Input Field request: solubility (mole fraction) | item: O=P1(c2cc(O)ccc2O)Oc2ccccc2-c2ccccc21 (stereo unspecified)
## Output 0.0168

* * *

Conditions: in 2-ethoxyethanol, 367.65 K
measured.parameter: solubility (mole fraction)

## Input Field request: solubility (mole fraction) | item: O=P1(c2cc(O)ccc2O)Oc2ccccc2-c2ccccc21 (stereo unspecified)
## Output 0.0301

* * *

Conditions: in ethanol, 322.8 K
measured.parameter: solubility (mole fraction)
// keep it numeric: no unit symbol after the value

## Input Field request: solubility (mole fraction) | item: O=P1(c2cc(O)ccc2O)Oc2ccccc2-c2ccccc21 (stereo unspecified)
## Output 0.00332

* * *

Details: in methanol, 307.85 K
measured.parameter: solubility (mole fraction)
// keep it numeric: no unit symbol after the value

## Input Field request: solubility (mole fraction) | item: O=P1(c2cc(O)ccc2O)Oc2ccccc2-c2ccccc21 (stereo unspecified)
## Output 0.00182

* * *

Details: in ethanol, 298.1 K
measured.parameter: solubility (mole fraction)

## Input Field request: solubility (mole fraction) | item: O=P1(c2cc(O)ccc2O)Oc2ccccc2-c2ccccc21 (stereo unspecified)
## Output 0.00224
